Target: Ba/F3 FLT3 (ITD) (Homo sapiens, UniProt P36888, cells depend on it, form not given)
Assay: Ba/F3 cell growth inhibition (CellTiter-Glo, 72 hours)
Type: cell-based
Conditions: read-out: Ba/F3 GI50s (μM) FLT3 (ITD)
Overview of recorded GI50 for various compounds

Lab note: need GI50 with Ba/F3 FLT3 (ITD) (Homo sapiens, UniProt P36888, cells depend on it, form not given) for entry `O=C1CCCCCCOc2ccc(cc2)-c2ccc3cnc(nn23)Nc2ccc(cc2)N2CCN1CC2` , please look it up.
1 to 10 µM

Request - read-out GI50 | tested on Ba/F3 FLT3 (ITD) (Homo sapiens, UniProt P36888, cells depend on it, form not given) | compound CS(=O)(=O)Nc1cccc(-c2ccc3cnc(Nc4ccc(N5CCN(CCCOc6cccc7c6C(=O)N(C6CCC(=O)NC6=O)C7=O)CC5)cc4)nn23)c1 (centres unmarked)
< 1 µM

Entry `O=C1CCCCCCOc2ccc(cc2)-c2ccc3cnc(nn23)Nc2ccc(cc2)N2CCN(CCCN1)CC2` , system Ba/F3 FLT3 (ITD) (Homo sapiens, UniProt P36888, cells depend on it, form not given): what GI50 was measured?
< 1 µM

New cases:
Give Ba/F3 FLT3 (ITD) (Homo sapiens, UniProt P36888, cells depend on it, form not given) GI50 for `CN1CCCn2cc(cn2)Nc2ncc3ccc(n3n2)-c2ccc(cc2)OCC1`
< 1 µM
